Target: p38α/MK2 (Homo sapiens, UniProt Q16539)
Sequence (Q16539 whole entry): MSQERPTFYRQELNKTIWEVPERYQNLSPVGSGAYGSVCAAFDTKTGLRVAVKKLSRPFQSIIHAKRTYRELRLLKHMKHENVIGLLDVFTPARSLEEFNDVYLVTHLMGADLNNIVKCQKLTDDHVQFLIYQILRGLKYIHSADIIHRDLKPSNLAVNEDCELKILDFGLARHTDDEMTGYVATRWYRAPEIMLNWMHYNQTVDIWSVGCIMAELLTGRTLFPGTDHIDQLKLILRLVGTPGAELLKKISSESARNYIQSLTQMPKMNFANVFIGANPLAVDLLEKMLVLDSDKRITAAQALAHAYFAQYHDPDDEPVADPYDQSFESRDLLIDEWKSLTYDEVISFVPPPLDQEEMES
Sequence (P49137 whole entry partner): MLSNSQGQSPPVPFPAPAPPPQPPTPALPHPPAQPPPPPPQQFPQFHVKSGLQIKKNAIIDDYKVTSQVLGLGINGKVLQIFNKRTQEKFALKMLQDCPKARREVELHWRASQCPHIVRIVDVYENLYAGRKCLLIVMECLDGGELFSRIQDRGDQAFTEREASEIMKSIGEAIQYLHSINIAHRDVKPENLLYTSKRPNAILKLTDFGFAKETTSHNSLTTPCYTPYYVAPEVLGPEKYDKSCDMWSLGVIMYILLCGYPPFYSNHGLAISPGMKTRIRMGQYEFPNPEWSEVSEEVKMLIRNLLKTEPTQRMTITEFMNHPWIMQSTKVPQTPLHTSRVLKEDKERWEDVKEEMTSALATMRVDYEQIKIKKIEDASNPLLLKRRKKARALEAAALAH
Test: p38α/MK2 cascade assay (IMAP, Hsp27 peptide phosphorylation)
Conditions: p38α/MK2 cascade, Hsp27 peptide 1 μM, MgATP 10 μM, 120 minutes; read-out: p38/MK2 IC50
I'd be grateful if you could share measured IC50 for these entries.
Numbers only, in nM.

>>> numeric_value("Cc1nc(COc2nc(C)n(-c3cc(-c4ccnc(C(C)(C)O)n4)ccc3C)c(=O)c2Cl)co1 (single isomer, unassigned) [Example 10]")
19200
>>> numeric_value("Cc1ccc(-c2ccnc(C(C)(C)O)n2)cc1-n1c(C)nc(OCc2ccc(F)cc2F)c(Br)c1=O")
15
>>> numeric_value("Cc1cccc(COc2nc(C)n(-c3cc(-c4ccnc(C(C)(C)O)n4)ccc3C)c(=O)c2Cl)c1")
39

Then there is this compound:
Task: What IC50 value was documented for this compound, COc1cccc(COc2nc(C)n(-c3cc(-c4ccnc(C(C)(C)C)n4)ccc3C)c(=O)c2Cl)c1 ?
Result: 1900
